Values were extracted from patent US9440956B2.

Below, each entry is listed with its recorded pKi P2X2/3.
# SYSTEM_NAME: human P2X2/3 receptor (Homo sapiens, UniProt P56373+Q9UBL9)
# Construct: expressed in transfected cells; host or cells: CHO-K1
# Sequence (Q9UBL9 whole entry): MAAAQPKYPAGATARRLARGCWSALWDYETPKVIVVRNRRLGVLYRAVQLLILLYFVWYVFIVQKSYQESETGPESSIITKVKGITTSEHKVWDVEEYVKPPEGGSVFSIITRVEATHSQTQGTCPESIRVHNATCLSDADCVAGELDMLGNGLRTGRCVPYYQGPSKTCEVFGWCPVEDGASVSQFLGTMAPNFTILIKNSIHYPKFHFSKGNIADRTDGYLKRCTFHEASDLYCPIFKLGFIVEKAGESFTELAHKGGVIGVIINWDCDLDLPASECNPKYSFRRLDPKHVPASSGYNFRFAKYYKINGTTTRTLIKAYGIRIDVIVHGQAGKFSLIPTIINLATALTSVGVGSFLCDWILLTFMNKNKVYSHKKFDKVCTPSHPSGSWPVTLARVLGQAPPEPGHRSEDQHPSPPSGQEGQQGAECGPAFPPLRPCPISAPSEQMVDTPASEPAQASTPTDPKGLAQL
# Sequence (P56373 whole entry): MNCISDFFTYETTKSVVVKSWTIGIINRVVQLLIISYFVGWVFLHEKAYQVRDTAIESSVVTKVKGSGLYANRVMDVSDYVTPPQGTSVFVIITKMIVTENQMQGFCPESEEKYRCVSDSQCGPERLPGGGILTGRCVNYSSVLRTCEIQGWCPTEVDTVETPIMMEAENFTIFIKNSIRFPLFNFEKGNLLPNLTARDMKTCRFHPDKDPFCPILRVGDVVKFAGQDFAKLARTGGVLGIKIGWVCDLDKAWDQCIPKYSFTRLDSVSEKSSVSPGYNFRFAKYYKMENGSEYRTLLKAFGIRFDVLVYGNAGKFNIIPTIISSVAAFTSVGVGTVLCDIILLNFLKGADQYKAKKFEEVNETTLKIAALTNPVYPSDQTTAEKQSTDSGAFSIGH
# EXPERIMENT_DESCRIPTION: P2X2/3 FLIPR (Fluorometric Imaging Plate Reader) assay
# Type: cell-based
# EXPERIMENTAL_CONTEXT: CHO-K1 cells transfected with human P2X2/3; agonist α,β-meATP 5 μM; Fluo-3 calcium fluorescence
The response must contain the number and no unit.

Use these answered entries as a reference point.
Cc1ccc(-c2cc(C(=O)NCc3ccc(C)nn3)cc3c2cnn3CC(F)(F)F)nc1
6.51
Cc1ccc(-c2cc(C(=O)NCc3ccc(C)nn3)cc3c2cnn3Cc2ccccc2)nc1
6.56
Cc1ccc(-c2cc(C(=O)NCc3cnc(C)cn3)cc3c2ccn3CC(C)C)nc1
5.92

// below: pKi P2X2/3 requested for another molecule
Query: Which pKi P2X2/3 is reported for this molecule? Cc1ccc(-c2cc(C(=O)NCc3cnc(C)cn3)cc3c2cnn3CC(F)(F)F)nc1
Result: 5.7

* * *

Some molecules, each annotated with its measured pKi P2X3.
# SYSTEM_NAME: rat P2X3 receptor (Rattus norvegicus, UniProt P49654)
# Construct: expressed in transfected cells; host or cells: CHO-K1
# Sequence (P49654 whole entry): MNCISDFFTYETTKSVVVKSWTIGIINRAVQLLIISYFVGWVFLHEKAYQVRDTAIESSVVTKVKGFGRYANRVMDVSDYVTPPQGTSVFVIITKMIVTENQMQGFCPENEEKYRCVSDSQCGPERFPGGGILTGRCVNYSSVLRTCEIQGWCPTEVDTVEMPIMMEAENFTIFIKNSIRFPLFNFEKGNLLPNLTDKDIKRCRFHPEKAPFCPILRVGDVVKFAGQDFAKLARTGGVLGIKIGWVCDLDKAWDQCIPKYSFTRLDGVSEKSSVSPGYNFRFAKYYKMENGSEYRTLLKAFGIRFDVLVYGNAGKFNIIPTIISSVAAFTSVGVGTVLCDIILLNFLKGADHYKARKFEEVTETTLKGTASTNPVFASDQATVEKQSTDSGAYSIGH
# EXPERIMENT_DESCRIPTION: P2X3 FLIPR (Fluorometric Imaging Plate Reader) assay
# Assay type: cell-based
# EXPERIMENTAL_CONTEXT: CHO-K1 cells transfected with cloned rat P2X3; agonist α,β-meATP 1 μM; Fluo-3 calcium fluorescence
The reply should be a number, written without any unit.

Example cases with answers are listed next.
Cc1ccc(-c2cc(C(=O)NCc3cnc(C)cn3)cc3c2cnn3CC(C)C)nc1
7.3
Cc1ccc(-c2cc(C(=O)NCc3ccc(C)nn3)cc3c2ccn3C(C)C)nc1
7.27
Cc1ccc(-c2cc(C(=O)NCc3ccc(C)nn3)cc3c2cnn3Cc2ccccc2)nc1
7.62
Cc1ccc(-c2cc(C(=O)N[C@@H](C)CO)cc3c2ccn3C(C)C)nc1
5.48
Cc1ccc(-c2cc(C(=O)N[C@@H](C)CO)cc3c2cnn3-c2ccccc2C(C)C)nc1
7.55
Cc1ccc(-c2cc(C(=O)N[C@@H](C)CO)cc3c2ncn3CC(C)C)nc1
5.24
Cc1ccc(-n2ncc3c(-c4ccc(C)cn4)cc(C(=O)NCc4cnc(C)cn4)cc32)cc1
7.7
Cc1ccc(-c2cc(C(=O)N[C@@H](C)CO)cc3c2cnn3Cc2ccccc2)nc1
6.2

Query: Enter reported pKi P2X3 observed with rat P2X3 receptor (Rattus norvegicus, UniProt P49654) for CCCCn1ncc2c(-c3ccc(C)cn3)cc(C(=O)NCc3cnc(C)cn3)cc21
Result: 7.38

Query: Further, for Cc1ccc(-c2cc(C(=O)NCc3cnc(C)cn3)cc3c2cnn3CCC(C)C)nc1 ?
Result: 7.47

Query: Same lookup for Cc1ccc(-c2cc(C(=O)NCc3cnc(C)cn3)cc3c2cnn3CC(F)(F)F)nc1 , please.
Result: 6.52

Query: Another: Cc1ccc(-c2cc(C(=O)NCc3ccc(C)nn3)cc3c2cnn3CCC(C)C)nc1
Result: 7.66

Query: // same read-out, input: CCCCn1ncc2c(-c3ccc(C)cn3)cc(C(=O)N[C@@H](C)CO)cc21
Result: 6.31
